Attribution: patent US11117931B2

# ASSAY OVERVIEW: Cytotoxicity in normal cell line (MTT)
# Format: cell-based
# RUN PARAMETERS: human, HaCaT keratinocytes, peptide concentration 50 μM; read-out: Cell survival ability
Where no end group is shown, it is not given here.
So I've got a bunch of substances here, and I need their viability at 24 h, 50 µM values.
Respond with the bare value in %.

Challenge: I am curious: what viability at 24 h, 50 µM value has been reported for ILGKLWEGVKSI-NH2 [Hp1404-T1] ?
Response given: 100

Challenge: I am curious: what viability at 24 h, 50 µM value has been reported for GILGKLWEGVKSIF-NH2 [Hp1404] ?
Response given: 30.5

Challenge: I am curious: what viability at 24 h, 50 µM value has been reported for ILKKLLKGVKSI-NH2 [Hp1404-T1c] ?
Response given: 51.3

Challenge: I am curious: what viability at 24 h, 50 µM value has been reported for ILKKLLKKVKSI-NH2 [Hp1404-T1d] ?
Response given: 33.1

Challenge: I am curious: what viability at 24 h, 50 µM value has been reported for ILKKLWEGVKSI-NH2 [Hp1404-T1a] ?
Response given: 100

Challenge: I am curious: what viability at 24 h, 50 µM value has been reported for ILKKLLKKVKKI-NH2 [Hp1404-T1e] ?
Response given: 100

Challenge: I am curious: what viability at 24 h, 50 µM value has been reported for ILKKLLEGVKSI-NH2 [Hp1404-T1b] ?
Response given: 100

====

# Tested on: E. coli
# ASSAY OVERVIEW: MIC, E. coli
# Format: cell-based, Escherichia coli
# RUN PARAMETERS: E. coli (ATCC 25922), 18 hours at 37° C.
Where no end group is shown, it is not given here.
MEASURE: Minimal inhibitory concentration

Challenge: Find Minimal inhibitory concentration (E. coli) for the entry ILKKLLKKVKKI-NH2 [Hp1404-T1e]
Response given: >25 µM

Challenge: Find Minimal inhibitory concentration (E. coli) for the entry ILKKLLKKVKSI-NH2 [Hp1404-T1d]
Response given: >25 µM

Challenge: Find Minimal inhibitory concentration (E. coli) for the entry ILKKLLEGVKSI-NH2 [Hp1404-T1b]
Response given: >25 µM

Challenge: Find Minimal inhibitory concentration (E. coli) for the entry ILGKLWEGVKSI-NH2 [Hp1404-T1]
Response given: >25 µM

Challenge: Find Minimal inhibitory concentration (E. coli) for the entry GILGKLWEGVKSIF-NH2 [Hp1404]
Response given: 6.25 µM

====

# Test system: erythrocytes of a mouse (Balb/c)
# ASSAY OVERVIEW: Hemolytic activity
# Format: cell-based
# RUN PARAMETERS: peptide concentration 12.5 μM
Where no end group is shown, it is not given here.
So I've got a bunch of substances here, and I need their Erythrocyte disrupting ability values.
Respond with the bare value in %.

Challenge: Find Erythrocyte disrupting ability (erythrocytes of a mouse (Balb/c)) for the entry ILGKLWEGVKSI-NH2 [Hp1404-T1]
Response given: 0

Challenge: Find Erythrocyte disrupting ability (erythrocytes of a mouse (Balb/c)) for the entry ILKKLWEGVKSI-NH2 [Hp1404-T1a]
Response given: 0

Challenge: Find Erythrocyte disrupting ability (erythrocytes of a mouse (Balb/c)) for the entry GILGKLWEGVKSIF-NH2 [Hp1404]
Response given: 2.16

Challenge: Find Erythrocyte disrupting ability (erythrocytes of a mouse (Balb/c)) for the entry ILKKLLKKVKSI-NH2 [Hp1404-T1d]
Response given: 0

Challenge: Find Erythrocyte disrupting ability (erythrocytes of a mouse (Balb/c)) for the entry ILKKLLKKVKKI-NH2 [Hp1404-T1e]
Response given: 0.28

Challenge: Find Erythrocyte disrupting ability (erythrocytes of a mouse (Balb/c)) for the entry ILKKLLKGVKSI-NH2 [Hp1404-T1c]
Response given: 0

Challenge: Find Erythrocyte disrupting ability (erythrocytes of a mouse (Balb/c)) for the entry ILKKLLEGVKSI-NH2 [Hp1404-T1b]
Response given: 0.19
